Recorded IC50 values (Focal adhesion kinase 1 (Homo sapiens, UniProt Q05397)) are given below.

| MOL SMILES | COMPARISON SIGN | IC50 (µM) |
| --- | --- | --- |
| FC(F)(F)CNc1nc(Nc2ccc(N3CCOCC3)c(Cl)c2)nc2ccoc12 | > | 10 |
| CC1(C)OCC(=O)Nc2cc(Nc3nc(NCC(F)(F)F)c4occc4n3)ccc21 | = | 5.5 |
